Assay: viability loss with induced miR-34 in A549 – imaging, A549 dox-inducible miR-34, nuclei and caspase counts, primary screen (AID 1347080); further: test concentration not given here
Conditions: A549 miR-34 inducible, Hoechst nuclei count, 48 h; measured here: relative caspase fold change +Dox/-Dox
API: label(entry) gives true (1) if the entry's fold change is strictly smaller than 0.8; on equality or larger values it gives false (0).

As a guide, the following entries are already answered.
CCOC(=O)C(CCc1ccccc1)NC(C)C(=O)N1C(=O)N(C)CC1C(=O)O (stereo unspecified) ... false (0)
COc1cc(OC)c(-c2nnc3ccccn23)cc1OC ... false (0)
CCCCCCCCCCCCCCCC(=O)C1=C(O)C(CO)OC1=O (stereo unspecified) ... false (0)

**Query** Please determine if CNS(=O)(=O)c1ccc(NC(=O)c2ccccc2C(=O)O)cc1 (tested in a mixture with another compound) is below 0.8 in terms of fold change.
**Result** false (0)

**Query** Again, but for `Cc1ccc(-c2ncnc3scc(C)c23)c2cccnc12`
**Result** false (0)

**Query** Also, `O=C(Nc1nncs1)NC1Cc2ccccc2C1` please.
**Result** false (0)

**Query** Same question for C=C[C@H]1CN2CCC1C[C@H]2[C@H](O)c1ccnc2ccc(OC)cc12 (stereo partly specified) please.
**Result** false (0)

**Query** What do you get for CC(C)(C)NCC(O)COc1ccccc1C1CCCC1 (stereo unspecified) ?
**Result** true (1)

**Query** Try this molecule next: CC(O)C(O)[C@H]1CNc2nc(N)[nH]c(=O)c2N1 (stereo partly specified)
**Result** false (0)

**Query** Same for `Cc1nc2ccc(-c3ncnc4sccc34)cc2c(=O)[nH]1`
**Result** false (0)

**Query** Another molecule: OC(COc1cccc2ncccc12)CN1CCN(C2c3ccccc3C3C(c4ccccc42)C3(F)F)CC1 (stereo unspecified)
**Result** true (1)
